Ref: the supplement of paper PMC9233669

# Test system: biotinyl-Phe-oxazolone
# protocolNotes: self-aminoacylation, catalytic enhancement (BFO) (fold over background); higher = more active; k-Seq, kA / k0A0; sequences stand for … in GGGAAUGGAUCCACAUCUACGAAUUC…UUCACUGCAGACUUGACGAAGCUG
Variants at the floor of the assay were thinned out.
reportedEndpoint: self-aminoacylation
Please reply with the value in numeric form only.

Some solved entries appear below for comparison.
[[record]]
residuecodes = "AUUCACCUAGGCCGUCGGGUG [Fam2.2 aminoacylation ribozyme variant]"
recordedmeasurement = 17.1

[[record]]
residuecodes = "CUACUUGAAACAAGCGGUCUG [Fam1A.1 aminoacylation ribozyme variant]"
recordedmeasurement = 4.76


Item AGUCACCUGGGUCAUCGGGUG [Fam2.2 aminoacylation ribozyme variant] : provide self-aminoacylation
35.4

// fetch self-aminoacylation given entry CUCCUUCAAACAAUCGGGCUG [Fam1A.1 aminoacylation ribozyme variant]
15.1

* * *

# System: biotinyl-Leu-oxazolone
# protocolNotes: self-aminoacylation, catalytic enhancement (BLO) (fold over background); higher = more active; k-Seq, kA / k0A0; sequences stand for … in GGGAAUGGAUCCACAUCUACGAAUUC…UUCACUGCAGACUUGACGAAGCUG
Variants at the floor of the assay were thinned out.
Property: self-aminoacylation; scope: individual sequences
A bare number is all that is needed in reply.

Sample records with self-aminoacylation:
[[record]]
residuecodes = "AUUACCCUGGACAUAGAGUGA [Fam2.1 aminoacylation ribozyme variant]"
recordedmeasurement = 15

[[record]]
residuecodes = "AUUACCCUGGUCCUCGUGUGA [Fam2.1 aminoacylation ribozyme variant]"
recordedmeasurement = 2.88


Quote biotinyl-Leu-oxazolone self-aminoacylation for entry AUCCAUCUAGGUCAUCGGGUG [Fam2.2 aminoacylation ribozyme variant] .
6.36

// fetch self-aminoacylation; item: CCACGCUUCAGGCAAUCGGUC [Fam1B.1 aminoacylation ribozyme variant] ; system: biotinyl-Leu-oxazolone
1.39

Tell me self-aminoacylation of AUUACCCUGGUCAUCAACUGA [Fam2.1 aminoacylation ribozyme variant] when tested on biotinyl-Leu-oxazolone.
0.851

Find the measured self-aminoacylation of CUACUUCUAUCAAUCGGUCUG [Fam1A.1 aminoacylation ribozyme variant] with biotinyl-Leu-oxazolone as test system.
0.554

Tell me its self-aminoacylation on biotinyl-Leu-oxazolone: ACUCACCUAGGUCAUCCGGUG [Fam2.2 aminoacylation ribozyme variant]
7.63

# lookup: biotinyl-Leu-oxazolone self-aminoacylation, key = CUACAUGAAACAAUCGGUCUG [Fam1A.1 aminoacylation ribozyme variant]
0.721

Provide measured self-aminoacylation on biotinyl-Leu-oxazolone for CUACUUCAAACAAUCGCUAUG [Fam1A.1 aminoacylation ribozyme variant] please.
0.878

* * *

# System: biotinyl-Trp-oxazolone
# protocolNotes: self-aminoacylation, catalytic enhancement (BWO) (fold over background); higher = more active; k-Seq, kA / k0A0; sequences stand for … in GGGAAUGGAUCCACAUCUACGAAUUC…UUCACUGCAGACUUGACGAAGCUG
Variants at the floor of the assay were thinned out.
Listed next: entries and their corresponding self-aminoacylation.
Give your answer as a number; write no unit.

Solved entries (count: 2):
[[record]]
residuecodes = "AAGUGUGCUAAUAGUAGCAAG [Fam3.1 aminoacylation ribozyme variant]"
reportedendpoint = "self-aminoacylation"
recordedmeasurement = 1.6

[[record]]
residuecodes = "CCACAGUUCAAGAAAUCGGUC [Fam1B.1 aminoacylation ribozyme variant]"
reportedendpoint = "self-aminoacylation"
recordedmeasurement = 1.67


// moving on: another record for self-aminoacylation
Retrieve self-aminoacylation on biotinyl-Trp-oxazolone; query ACUACCCUGUUCAUCGAGUGA [Fam2.1 aminoacylation ribozyme variant]
5.04

* * *

Measured self-aminoacylation of individual entries
# System: biotinyl-Ile-oxazolone
# protocolNotes: self-aminoacylation, catalytic enhancement (BIO) (fold over background); higher = more active; k-Seq, kA / k0A0; sequences stand for … in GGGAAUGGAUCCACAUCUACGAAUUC…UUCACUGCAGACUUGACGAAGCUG
Variants at the floor of the assay were thinned out.
Quick one: just the number, no unit, thanks!

[[record]]
residuecodes = "AAGUUUCCUAAUAGUCGAAAG [Fam3.1 aminoacylation ribozyme variant]"
targetdesc = "biotinyl-Ile-oxazolone"
recordedmeasurement = 1.45


Give self-aminoacylation for the following sequence: AUUACCCGAGUCAUCGAGUGA [Fam2.1 aminoacylation ribozyme variant]
4.27

# return recorded self-aminoacylation for input AUUAGCCUGGUCAUAGAGUGA [Fam2.1 aminoacylation ribozyme variant]
2.96

State its self-aminoacylation for this sequence: AUUCACCUAGGCCAUCGGGUU [Fam2.2 aminoacylation ribozyme variant]
1.34

Retrieve self-aminoacylation measured for AUUACAAUGGUCAUCGAGUGA [Fam2.1 aminoacylation ribozyme variant] and print it.
3.7

Find the measured self-aminoacylation of AAGUUUGCCAAUAGUCGCGAG [Fam3.1 aminoacylation ribozyme variant] and report it.
1.61

Give the reported value of self-aminoacylation for this record: CUACUUCAAACAUUCGGUAUG [Fam1A.1 aminoacylation ribozyme variant]
0.968

Quickly give me recorded self-aminoacylation for AAAUUUGCGAAUAGUCGCAAG [Fam3.1 aminoacylation ribozyme variant]
1.71

Provide self-aminoacylation value for the following sequence: AUUCACAUAGGCCAUCGGGUG [Fam2.2 aminoacylation ribozyme variant]
3.23

Answer with the recorded self-aminoacylation for the sequence listed here: UUACUUCAAACAAUCGGCCUG [Fam1A.1 aminoacylation ribozyme variant]
2.69

Tell me measured self-aminoacylation for CUACUUCCAACAAUAGGUCUG [Fam1A.1 aminoacylation ribozyme variant] please.
0.744

Please list self-aminoacylation recorded for the sequence AAGUUUGCUAAUAGGCGUAAG [Fam3.1 aminoacylation ribozyme variant]
0.669

Using known records, supply self-aminoacylation for CCCCACUUCAAGCAAUCGAUC [Fam1B.1 aminoacylation ribozyme variant]
0.768

* * *

# Tested on: biotinyl-Met-oxazolone
# protocolNotes: self-aminoacylation, catalytic enhancement (BMO) (fold over background); higher = more active; k-Seq, kA / k0A0; sequences stand for … in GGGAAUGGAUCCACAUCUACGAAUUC…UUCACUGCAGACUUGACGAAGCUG
Variants at the floor of the assay were thinned out.
reportedEndpoint: self-aminoacylation

The following sequences have reported results that may help.
[[record]]
residuecodes = "AUUCACCUUGGUCAUCGGUUG [Fam2.2 aminoacylation ribozyme variant]"
recordedmeasurement = 0.844

[[record]]
residuecodes = "AUUCACUUAAGUCAUCGGGUG [Fam2.2 aminoacylation ribozyme variant]"
recordedmeasurement = 8.88

[[record]]
residuecodes = "AUUCCCCUGGUCUUCGAGUGA [Fam2.1 aminoacylation ribozyme variant]"
recordedmeasurement = 9.43

[[record]]
residuecodes = "AUUCACCUAGGGCAUUGGGUG [Fam2.2 aminoacylation ribozyme variant]"
recordedmeasurement = 6.54


Switching to the query record.
Report measured self-aminoacylation; entry is CCACUCUGCAAGCAAUCGGUC [Fam1B.1 aminoacylation ribozyme variant]
1.06

* * *

# Tested on: biotinyl-Trp-oxazolone
# protocolNotes: self-aminoacylation, catalytic enhancement (BWO) (fold over background); higher = more active; k-Seq, kA / k0A0; sequences stand for … in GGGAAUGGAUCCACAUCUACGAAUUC…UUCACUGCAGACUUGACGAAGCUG
This sample holds only a part of the variants without activity.
Below, each entry is listed alongside its reported self-aminoacylation.
Write no unit; give the number alone.

Some entries whose results are on file:
[[record]]
residuecodes = "AGGUUUGCUAAUAGUCGCAGG [Fam3.1 aminoacylation ribozyme variant]"
recordedmeasurement = 1.99

[[record]]
residuecodes = "AUUACCCUGGACAUCGAGUGU [Fam2.1 aminoacylation ribozyme variant]"
recordedmeasurement = 4.38

[[record]]
residuecodes = "AAGUGUGCUAAUAGUCGGAAG [Fam3.1 aminoacylation ribozyme variant]"
recordedmeasurement = 3.96

[[record]]
residuecodes = "CUUACCCUGGUCAUCGUGUGA [Fam2.1 aminoacylation ribozyme variant]"
recordedmeasurement = 2.98

[[record]]
residuecodes = "AUUCACCUCGGUCAUCUGGUG [Fam2.2 aminoacylation ribozyme variant]"
recordedmeasurement = 3.2

[[record]]
residuecodes = "AUUCAACUAGGUCAUCGGCUG [Fam2.2 aminoacylation ribozyme variant]"
recordedmeasurement = 1.45


Input AAGUUUGCUGAUUGUCGCAAG [Fam3.1 aminoacylation ribozyme variant] , output reported self-aminoacylation.
1.37

Specify reported self-aminoacylation for the sequence shown: AUUACCCUGGUCAUUGAGUGA [Fam2.1 aminoacylation ribozyme variant]
10.8

Provide only the value of recorded self-aminoacylation for CCAUACUUCAAGUAAUCGGUC [Fam1B.1 aminoacylation ribozyme variant]
5

Supply reported self-aminoacylation belonging to this sequence: AUUCUCCUAGGUCAUCUGGUG [Fam2.2 aminoacylation ribozyme variant]
4.16

Supply measured self-aminoacylation of CUAUUUCAAACAAUCGGUCUG [Fam1A.1 aminoacylation ribozyme variant] in your reply.
4.39

Given the sequence AUGCACAUAGGUCAUCGGGUG [Fam2.2 aminoacylation ribozyme variant] , write its reported self-aminoacylation.
10.4

Tell me its self-aminoacylation given AUUCACCUAUGUCAUCGGGUA [Fam2.2 aminoacylation ribozyme variant] as the entry.
1.89

Return value of self-aminoacylation for input AUUACCCUUGUCAUCGAGUAA [Fam2.1 aminoacylation ribozyme variant] , no commentary.
1.53
